- TESTED SYSTEM: T1, mouse VTCN1 protein (Mus musculus, UniProt Q7TSP5)
- T1 construct: His
- T1 sequence (Q7TSP5 25-257): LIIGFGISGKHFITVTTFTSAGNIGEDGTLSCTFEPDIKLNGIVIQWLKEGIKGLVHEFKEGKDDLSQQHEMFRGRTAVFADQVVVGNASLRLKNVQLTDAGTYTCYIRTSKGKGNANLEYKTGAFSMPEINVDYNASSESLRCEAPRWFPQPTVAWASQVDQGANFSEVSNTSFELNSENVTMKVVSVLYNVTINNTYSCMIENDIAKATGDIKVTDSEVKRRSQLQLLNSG
- PROCEDURE TEXT: Affinity by OCTET, mouse VTCN1
- Type: binding
- RUN CONDITIONS: Table 12
- Description: The affinity of antibodies to recombinant VTCN1 was determined on an OCTET™ Red (Pall, ForteBio) instrument. […] Table 5 lists the affinity measured for selected antibodies.
MEASUREMENT KIND: mouse k(off)
Number only, please.

16H12_60B4: fully human VTCN1 antibody; VH SEQ ID NO: 283, VL SEQ ID NO: 286 (antibody, V domains shown) VH: QVQVVQSGAEVKKPGSSVKVSCKASGDTFSNYAISWVRQAPGQGLEWMGGIIPIFGITNYAQKFQGRVTIIADKSTRTAYMELSSLRSEDTAVYYCSRGGPYFDYWGQGILVTVSS VL: EIVMTQSPATLSVSPGERATLSCRASQSVSSNLAWYQQKPGQAPRLLIYGASTRATGIPARFSGSGSGTEFTLTISSLQSEDFAVYYCQQYKKWPFTFGPGTKVDIK; 3.76E−03

Request: Reported mouse k(off) for 14D6_60B5: fully human VTCN1 antibody; VH SEQ ID NO: 278, VL SEQ ID NO: 281 (antibody, V domains shown) VH: QVQLVHSGAEVKRPGSSVKVSCKASGGTFSSYAISWVRQAPGQGLEWMGGIIPIFGIANYAQKFQGRVTIIADKSTRTAYMELSSLRSEDTAVYYCARGGPYFDYWGQGILVTVSS VL: EIVMTQSPATLSVSPGERATLSCRASQSVSSNLAWYQQKPGQAPRLLIYGASTRATGIPARFSGSGSGTEFTLTISSLQSEDFAVYYCQQYNKWPFTFGPGTKVDIK : what is it?
Response: 6.47E−03

Request: Cool, now 13H9_44D2: fully human VTCN1 antibody; VH SEQ ID NO: 272, VL SEQ ID NO: 276 (antibody, V domains shown) VH: QVQLQESGPGLVKPSETLSLTCTVSGGSISSYYWSWIRQPPGKGLEWIGYIYYSGSTNNNPSLKSRVTISVDTSKNQFSLKLISVTAADTAVYYCARVYNNYDWGFDYWGQGTLVTVSS VL: EIVMTQSPATLSVSPGERATLSCRASQSVSSNLAWYQQKPGQAPRLLIYGASTRATGIPARFSGSGSGTEFTLTIRSLQSEDFAVYYCQQYHNWPLTFGGGTKLEIK
Response: 5.79E−01

Request: Cool, now 4C7_63A1: fully human VTCN1 antibody; VH SEQ ID NO: 248, VL SEQ ID NO: 252 (antibody, V domains shown) VH: QVQLQESGPGLVKPSGTLSLTCAVSGGSISSSNWWSWVRQPPGKGLEAIGEIYHSGNTNYNPSLKSRVTISVDKSKNQFSLKLSSVTAADTAIYYCARDGYSSGWYWGYFDYWGQGTLVTVSS VL: EIVMTQSPATLSVSPGERATLSCRASQSVNSNLAWYQQKPGQAPWLLIYGASTRATGIPARFSGSGSGTEFTLTISSLQSEDFAVYYCQQYNHWPYTFGQGTKLEIK
Response: 4.01E−03
